This section presents compounds with their documented % Survival values.
System: P. multocida 46572
Experiment: In vivo mouse lung infection challenge model (murine efficacy), survival
Set-up: species or system CD-1 female mice
Conditions: P. multocida 46572 intranasal challenge; 20 mg/kg subcutaneous; harmonized relative to vehicle (−) and M9 (+) controls
Express it in %; write the number only.

Solved entries:
COMPOUND | RESULT UNITS | % Survival
CCCNC[C@]1(O)[C@H](C)O[C@@H](O[C@H]2[C@H](C)[C@@H](O[C@@H]3O[C@H](C)C[C@H](N(C)S(=O)(=O)Nc4ccccc4)[C@H]3O)[C@](C)(O)C[C@@H](C)CN[C@H](C)[C@@H](O)[C@](C)(O)[C@@H](CC)OC(=O)[C@@H]2C)C[C@@]1(C)OC [Example B-48] | % | 33
CCCNC[C@]1(O)[C@H](C)O[C@@H](O[C@H]2[C@H](C)[C@@H](O[C@@H]3O[C@H](C)C[C@H](N(C)S(=O)(=O)N(C)Cc4ccc(Cl)cc4)[C@H]3O)[C@](C)(O)C[C@@H](C)CN[C@H](C)[C@@H](O)[C@](C)(O)[C@@H](CC)OC(=O)[C@@H]2C)C[C@@]1(C)OC [Example B-41] | % | 52
CCCNC[C@]1(O)[C@H](C)O[C@@H](O[C@H]2[C@H](C)[C@@H](O[C@@H]3O[C@H](C)C[C@H](N(C)S(=O)(=O)Nc4ccc(C(F)(F)F)cc4)[C@H]3O)[C@](C)(O)C[C@@H](C)CN[C@H](C)[C@@H](O)[C@](C)(O)[C@@H](CC)OC(=O)[C@@H]2C)C[C@@]1(C)OC [Example B-50] | % | 88

Continue with the compound presented below.
Q: I'd like to know its % Survival. The compound in question is CCCNC[C@]1(O)[C@H](C)O[C@@H](O[C@H]2[C@H](C)[C@@H](O[C@@H]3O[C@H](C)C[C@H](N(C)S(=O)(=O)N(C)c4ccc(C(F)(F)F)cc4)[C@H]3O)[C@](C)(O)C[C@@H](C)CN[C@H](C)[C@@H](O)[C@](C)(O)[C@@H](CC)OC(=O)[C@@H]2C)C[C@@]1(C)OC [Example B-113]
Ans: 59

###

Test system: IL-1β
Assay: Whole bovine blood assay, LPS-induced IL-1β (inhibition / overstimulation)
Assay type: cell-based
Conditions: drug concentration giving overstimulation (OS) of LPS-induced IL-1β, top concentration 250 μM
MEASUREMENT TYPE: minimal effective concentration (µM)
Give just the numeric value; µM need not be written.

TEST SMILES | RESULT
CC(=O)O.CC[C@H]1OC(=O)[C@H](C)[C@@H](O[C@H]2C[C@@](C)(OC)[C@](O)(CN3CCCCC3)[C@H](C)O2)[C@H](C)[C@@H](O[C@@H]2O[C@H](C)C[C@H](N(C)S(=O)(=O)Nc3ccc(C(F)(F)F)cc3)[C@H]2O)[C@](C)(O)C[C@@H](C)CN(C)[C@H](C)[C@@H](O)[C@]1(C)O | 16

We now examine a further compound.
Q: I am curious: what minimal effective concentration value has been reported for CCCNC[C@]1(O)[C@H](C)O[C@@H](O[C@H]2[C@H](C)[C@@H](O[C@@H]3O[C@H](C)C[C@H](N(C)S(=O)(=O)CC4CC4)[C@H]3O)[C@](C)(O)C[C@@H](C)CN[C@H](C)[C@@H](O)[C@](C)(O)[C@@H](CC)OC(=O)[C@@H]2C)C[C@@]1(C)OC ?
Ans: 15

###

Test system: M. haemolytica
Experiment: MIC, M. haemolytica strains
Assay type: cell-based
Conditions: Mannheimia haemolytica, M. haemolytica 46571, bovine efficacy challenge strain
Quick reference: MIC of the listed items.

Below, each entry is followed by its recorded MIC result.
MOLECULE | MIC
CCCNC[C@]1(O)[C@H](C)O[C@@H](O[C@H]2[C@H](C)[C@@H](O[C@@H]3O[C@H](C)C[C@H](N(C)S(=O)(=O)c4ccc(C)cc4)[C@H]3O)[C@](C)(O)C[C@@H](C)CN[C@H](C)[C@@H](O)[C@](C)(O)[C@@H](CC)OC(=O)[C@@H]2C)C[C@@]1(C)OC [Example B-26] | > 64 µg/mL
CC[C@H]1OC(=O)[C@H](C)[C@@H](O[C@H]2C[C@@](C)(OC)[C@](O)(CN3CCCCC3)[C@H](C)O2)[C@H](C)[C@@H](O[C@@H]2O[C@H](C)C[C@H](N(C)S(=O)(=O)c3ccc(Cl)cc3)[C@H]2O)[C@](C)(O)C[C@@H](C)CN[C@H](C)[C@@H](O)[C@]1(C)O [Example C-4] | > 128 µg/mL

Moving on to the next molecule.
Q: Which MIC value is on record for CCCNC[C@]1(O)[C@H](C)O[C@@H](O[C@H]2[C@H](C)[C@@H](O[C@@H]3O[C@H](C)C[C@H](N(C)S(=O)(=O)Nc4ccc(C(F)(F)F)cc4)[C@H]3O)[C@](C)(O)C[C@@H](C)CN[C@H](C)[C@@H](O)[C@](C)(O)[C@@H](CC)OC(=O)[C@@H]2C)C[C@@]1(C)OC [Example B-50] ?
Ans: > 64 µg/mL

###

Test system: IL-1β
Assay: Whole bovine blood assay, LPS-induced IL-1β (inhibition / overstimulation)
Assay type: cell-based
Conditions: drug concentration giving overstimulation (OS) of LPS-induced IL-1β, top concentration 250 μM
MEASUREMENT TYPE: minimal effective concentration (µM)
Number only, in µM; omit the unit.

Some entries whose results are on file:
COMPOUND | MEASUREMENT TYPE | RESULT UNITS | RESULT
CC[C@H]1OC(=O)[C@H](C)[C@@H](O[C@H]2C[C@@](C)(OC)[C@](O)(CNc3ccc(OC)cc3)[C@H](C)O2)[C@H](C)[C@@H](O[C@@H]2O[C@H](C)C[C@H](N(C)S(N)(=O)=O)[C@H]2O)[C@](C)(O)C[C@@H](C)CN[C@H](C)[C@@H](O)[C@]1(C)O [Example B-125] | minimal effective concentration | µM | 16
CC[C@H]1OC(=O)[C@H](C)[C@@H](O)[C@H](C)[C@@H](O[C@H]2O[C@@H](C)C[C@@H](N(C)S(=O)(=O)Nc3ccccc3)[C@@H]2Oc2ccccc2)[C@](C)(O)C[C@@H](C)CN[C@H](C)[C@@H](O)[C@]1(C)O [Example A-4] | minimal effective concentration | µM | 4
CC[C@H]1OC(=O)[C@H](C)[C@@H](O[C@H]2C[C@@](C)(OC)[C@](O)(CN3CCS(=O)(=O)CC3)[C@H](C)O2)[C@H](C)[C@@H](O[C@@H]2O[C@H](C)C[C@H](N(C)S(=O)(=O)Nc3ccc(C(F)(F)F)cc3)[C@H]2O)[C@](C)(O)C[C@@H](C)CN[C@H](C)[C@@H](O)[C@]1(C)O [Example C-13] | minimal effective concentration | µM | 6

Q: What measured minimal effective concentration goes with CC[C@H]1OC(=O)[C@H](C)[C@@H](O[C@H]2C[C@@](C)(OC)[C@](O)(CN3CCCCC3)[C@H](C)O2)[C@H](C)[C@@H](O[C@@H]2O[C@H](C)C[C@H](N(C)S(=O)(=O)N(CC)CC)[C@H]2O)[C@](C)(O)C[C@@H](C)CN[C@H](C)[C@@H](O)[C@]1(C)O [Example C-35] ?
Ans: 11

###

Tested on: IL-1β
Assay: Whole bovine blood assay, LPS-induced IL-1β (inhibition / overstimulation)
Type: cell-based
Conditions: drug concentration giving overstimulation (OS) of LPS-induced IL-1β, top concentration 250 μM
MEASUREMENT TYPE: minimal effective concentration (µM)
Field: numeric (µM). Do not append units.

Q: Find the measured minimal effective concentration: item CC[C@H]1OC(=O)[C@H](C)[C@@H](O[C@H]2C[C@@](C)(OC)[C@](O)(CN3CCCCC3)[C@H](C)O2)[C@H](C)[C@@H](O[C@@H]2O[C@H](C)C[C@H](N(Cc3cccnc3)S(=O)(=O)Nc3ccc(C(F)(F)F)cc3)[C@H]2O)[C@](C)(O)C[C@@H](C)CN[C@H](C)[C@@H](O)[C@]1(C)O [Example C-39] , target or system IL-1β.
Ans: 6

###

IC50 values by entry
Tested on: IL-6
Test: Whole bovine blood assay, LPS-induced IL-6
Type: cell-based
Conditions: Bos taurus, fresh whole bovine blood, LPS stimulant; top drug concentration 250 μM
The reply should contain only the number, in µM.

Q: Any idea what its IC50 is? The molecule is CC[C@H]1OC(=O)[C@H](C)[C@@H](O[C@H]2C[C@@](C)(OC)[C@](O)(CNCCc3ccc(C(F)(F)F)cc3)[C@H](C)O2)[C@H](C)[C@@H](O[C@@H]2O[C@H](C)C[C@H](N(C)S(=O)(=O)c3ccc(Cl)cc3)[C@H]2O)[C@](C)(O)C[C@@H](C)CN[C@H](C)[C@@H](O)[C@]1(C)O
Ans: 7

Q: Recorded IC50 for CCCNC[C@]1(O)[C@H](C)O[C@@H](O[C@H]2[C@H](C)[C@@H](O[C@@H]3O[C@H](C)C[C@H](N(CCC)S(=O)(=O)c4ccc(Cl)cc4)[C@H]3O)[C@](C)(O)C[C@@H](C)CN[C@H](C)[C@@H](O)[C@](C)(O)[C@@H](CC)OC(=O)[C@@H]2C)C[C@@]1(C)OC , please?
Ans: 9

Q: Give its IC50 value. Item: CCCNC[C@]1(O)[C@H](C)OC(O[C@H]2[C@H](C)[C@@H](O[C@@H]3O[C@H](C)C[C@H](N(C)S(=O)(=O)c4nccn4C)[C@H]3Oc3ccc(F)cc3)[C@](C)(O)C[C@@H](C)CN[C@H](C)[C@@H](O)[C@](C)(O)[C@@H](CC)OC(=O)[C@@H]2C)C[C@@]1(C)OC (stereo partly drawn)
Ans: 9
